phosphorylation enrichment values by entry
System: AncSZ
assay_protocol: phosphorylation enrichment, bacterial display (enrichment ratio); higher = better substrate or ligand; peptides without Tyr show the background
experimental_endpoint: phosphorylation enrichment

residue_sequence="PLQNTYNYNVL [SLC4A1_Y553_K551N]" observed_measurement=0.634
residue_sequence="MGSFNYLGFAR [SPTLC2_Y178_YF]" observed_measurement=0.63
residue_sequence="LGQRIYQFIRS [DYRK1B_Y271_Q275R_YF]" observed_measurement=1.3
residue_sequence="IRTIDYRYTVS [IDS_Y497_W502S]" observed_measurement=0.789

###

target: c-Src SH2
assay_protocol: SH2 binding enrichment of the phosphorylated peptide, bacterial display (enrichment ratio); higher = better substrate or ligand; peptides without Tyr show the background
So basically: SH2 binding enrichment at 0.9 or higher? That is Yes. Lower than 0.9? That is No.

residue_sequence="DERQPYVHMNG [IGF1R_Y1346_A1347V]" assigned_class=No
residue_sequence="ESDFPYSSSFE [SRPK2_Y427_T426P_YF]" assigned_class=No
residue_sequence="PLQNTYNYNVL [SLC4A1_Y553_K551N]" assigned_class=Yes
residue_sequence="MCITQYERESQ [PRNP_Y218]" assigned_class=No
residue_sequence="KGNMYYENSYA [EGFR_Y113_R108K]" assigned_class=Yes
residue_sequence="MTRDIYRASYY [ALK_Y1278_A1274T]" assigned_class=No
residue_sequence="MSRDIYSTDYY [NTRK1_Y676]" assigned_class=No
residue_sequence="RIVEIYSRSLQ [GCH1_Y175_R178S]" assigned_class=No
residue_sequence="LRIAVYHEILI [CREBBP_Y1450_T1447I]" assigned_class=Yes
residue_sequence="LVVFEYMRHGD [NTRK1_Y591_M587V]" assigned_class=No

###

System: Fer (mouse)
assay_protocol: phosphorylation enrichment, bacterial display (enrichment ratio); higher = better substrate or ligand; peptides without Tyr show the background
Heads up, the class ranges for phosphorylation enrichment are low end: < 0.4; middle: ≥ 0.4 and < 0.6; high end: ≥ 0.6

residue_sequence="EVKAQYEDIAQ [KRT1_Y358]" assigned_class="high end"
residue_sequence="AFLEDYFTSTK [SRC_Y522_E527K]" assigned_class="low end"
residue_sequence="LEIETYPRLLD [KRT12_Y429_R430P]" assigned_class="high end"
residue_sequence="KVPELYEIHKE [BCR_Y554]" assigned_class="high end"
residue_sequence="FPILNYKDIRK [CFAP221_Y798_M795I]" assigned_class=middle
residue_sequence="KGPNVYKKTVN [REV3L_Y1156]" assigned_class=middle
residue_sequence="VATRWYRSPEP [CDKL5_Y177_L182P]" assigned_class="low end"
residue_sequence="DHAGMYGLGDR [MAPT_Y18_T17M]" assigned_class="low end"
residue_sequence="DFAIVYGTIIL [GPR179_Y460_G455D]" assigned_class="high end"

###

target: Jak2 (UniProt O60674)
Sequence (O60674 whole entry, looked up): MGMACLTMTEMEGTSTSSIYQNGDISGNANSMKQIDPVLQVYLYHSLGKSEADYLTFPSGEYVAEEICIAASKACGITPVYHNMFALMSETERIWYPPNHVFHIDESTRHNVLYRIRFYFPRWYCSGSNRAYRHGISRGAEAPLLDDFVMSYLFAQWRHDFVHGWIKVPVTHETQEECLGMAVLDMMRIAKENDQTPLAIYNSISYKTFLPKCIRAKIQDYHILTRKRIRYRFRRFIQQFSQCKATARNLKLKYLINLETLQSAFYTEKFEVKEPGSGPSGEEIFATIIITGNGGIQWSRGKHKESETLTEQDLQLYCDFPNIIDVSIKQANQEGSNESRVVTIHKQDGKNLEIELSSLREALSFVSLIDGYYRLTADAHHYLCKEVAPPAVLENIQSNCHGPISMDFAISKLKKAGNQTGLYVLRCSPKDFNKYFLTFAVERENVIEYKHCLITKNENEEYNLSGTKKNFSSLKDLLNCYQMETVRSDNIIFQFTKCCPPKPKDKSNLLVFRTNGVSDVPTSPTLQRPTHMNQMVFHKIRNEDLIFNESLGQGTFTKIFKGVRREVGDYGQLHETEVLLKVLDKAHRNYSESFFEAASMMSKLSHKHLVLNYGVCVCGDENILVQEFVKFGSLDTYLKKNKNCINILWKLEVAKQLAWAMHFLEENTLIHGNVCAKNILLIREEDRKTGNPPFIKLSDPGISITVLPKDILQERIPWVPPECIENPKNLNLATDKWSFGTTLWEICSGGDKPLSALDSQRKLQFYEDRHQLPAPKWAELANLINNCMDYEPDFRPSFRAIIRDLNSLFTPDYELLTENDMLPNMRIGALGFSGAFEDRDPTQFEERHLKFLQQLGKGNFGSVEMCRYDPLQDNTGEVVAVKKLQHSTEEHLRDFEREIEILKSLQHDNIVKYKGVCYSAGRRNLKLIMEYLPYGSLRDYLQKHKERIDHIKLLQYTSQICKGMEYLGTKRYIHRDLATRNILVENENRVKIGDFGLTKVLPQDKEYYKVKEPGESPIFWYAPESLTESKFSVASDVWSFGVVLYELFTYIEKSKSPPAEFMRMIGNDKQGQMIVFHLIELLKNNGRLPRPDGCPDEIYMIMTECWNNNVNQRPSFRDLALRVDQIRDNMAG
assay_protocol: phosphorylation enrichment, bacterial display (enrichment ratio); higher = better substrate or ligand; peptides without Tyr show the background
experimental_endpoint: phosphorylation enrichment

residue_sequence="GEDEPYSEPYA [APBA1_Y183]" observed_measurement=1.15
residue_sequence="PTDGVYVMPTV [MYO7A_Y1668_S1666G]" observed_measurement=1.3
residue_sequence=GGGMFYPLDLF observed_measurement=0.891
residue_sequence="CPFNLYAAQLS [HGD_Y40_E42A_YF]" observed_measurement=1.02
residue_sequence="NLDRFYQQVTK [SEC16A_Y1041]" observed_measurement=0.639
residue_sequence="KRLDGYVLEGR [IGSF9_Y656]" observed_measurement=0.426
residue_sequence="GLAELYEYQKK [CKAP5_Y1854_K1857Q]" observed_measurement=0.917
residue_sequence="VNKIFHPDFIV [LIG3_Y768_Y768H_YF]" observed_measurement=0.695
residue_sequence="DSILVYQGKEQ [USH2A_Y1909]" observed_measurement=0.734
residue_sequence="NWGKKYPTCNS [PTPRZ1_Y53]" observed_measurement=0.85
residue_sequence="NFCPGYNNFFN [USH2A_Y467_R464C_YF]" observed_measurement=0.775
residue_sequence="SSPVLYLSPET [TJP1_Y931_P930L]" observed_measurement=1.02
residue_sequence="DFFDLYGGQKF [PTPN11_Y66_E69Q_YF]" observed_measurement=0.931
residue_sequence="LEDDMYRKTCT [XPA_Y257]" observed_measurement=1.56
residue_sequence="FHNSEYGELSE [FLT4_Y1337_Y1333H]" observed_measurement=1.05
residue_sequence="LLRFLYFFVCS [SLC34A2_Y109_G106R]" observed_measurement=1.69
residue_sequence="HLWRIYYDITD [MMP27_Y307]" observed_measurement=3.36
residue_sequence="EKKKFYDTKIE [CASP5_Y104_YF]" observed_measurement=0.883
residue_sequence="LWPIWYRCHRP [MRGPRX1_Y130]" observed_measurement=1.17
residue_sequence="MPAVTYTPAMR [MEGF10_Y895]" observed_measurement=0.743
residue_sequence="RNFVRYVQGLK [VWF_Y1400]" observed_measurement=0.556

###

Consider the following sequences and their measured phosphorylation enrichment readings.
target: Jak2 (UniProt O60674)
assay_protocol: phosphorylation enrichment, bacterial display (enrichment ratio); higher = better substrate or ligand; peptides without Tyr show the background
experimental_endpoint: phosphorylation enrichment

residue_sequence="GGMTEYELVVV [KRAS_Y4_K5E]" target="Jak2 (UniProt O60674)" experimental_endpoint="phosphorylation enrichment" observed_measurement=1
residue_sequence="NVVHEYSSELE [FGB_Y172_N170H]" target="Jak2 (UniProt O60674)" experimental_endpoint="phosphorylation enrichment" observed_measurement=1.02
residue_sequence="PELINCHQHNS [BTK_Y361_Y361C]" target="Jak2 (UniProt O60674)" experimental_endpoint="phosphorylation enrichment" observed_measurement=0.971

###

SH2 binding enrichment: recorded values
target: SHP2-C SH2
assay_protocol: SH2 binding enrichment of the phosphorylated peptide, bacterial display (enrichment ratio); higher = better substrate or ligand; peptides without Tyr show the background
experimental_endpoint: SH2 binding enrichment

residue_sequence="WKEREYEVVRD [CPS1_Y634_I632R]" observed_measurement=0.67
residue_sequence="GYEEAYSVFKK [PAFAH1B1_Y28]" observed_measurement=1.25
residue_sequence="AADGRYEVLFL [SEMA3F_Y478]" observed_measurement=0.617

###

target: MERTK (UniProt Q12866)
Sequence (Q12866 whole entry, looked up): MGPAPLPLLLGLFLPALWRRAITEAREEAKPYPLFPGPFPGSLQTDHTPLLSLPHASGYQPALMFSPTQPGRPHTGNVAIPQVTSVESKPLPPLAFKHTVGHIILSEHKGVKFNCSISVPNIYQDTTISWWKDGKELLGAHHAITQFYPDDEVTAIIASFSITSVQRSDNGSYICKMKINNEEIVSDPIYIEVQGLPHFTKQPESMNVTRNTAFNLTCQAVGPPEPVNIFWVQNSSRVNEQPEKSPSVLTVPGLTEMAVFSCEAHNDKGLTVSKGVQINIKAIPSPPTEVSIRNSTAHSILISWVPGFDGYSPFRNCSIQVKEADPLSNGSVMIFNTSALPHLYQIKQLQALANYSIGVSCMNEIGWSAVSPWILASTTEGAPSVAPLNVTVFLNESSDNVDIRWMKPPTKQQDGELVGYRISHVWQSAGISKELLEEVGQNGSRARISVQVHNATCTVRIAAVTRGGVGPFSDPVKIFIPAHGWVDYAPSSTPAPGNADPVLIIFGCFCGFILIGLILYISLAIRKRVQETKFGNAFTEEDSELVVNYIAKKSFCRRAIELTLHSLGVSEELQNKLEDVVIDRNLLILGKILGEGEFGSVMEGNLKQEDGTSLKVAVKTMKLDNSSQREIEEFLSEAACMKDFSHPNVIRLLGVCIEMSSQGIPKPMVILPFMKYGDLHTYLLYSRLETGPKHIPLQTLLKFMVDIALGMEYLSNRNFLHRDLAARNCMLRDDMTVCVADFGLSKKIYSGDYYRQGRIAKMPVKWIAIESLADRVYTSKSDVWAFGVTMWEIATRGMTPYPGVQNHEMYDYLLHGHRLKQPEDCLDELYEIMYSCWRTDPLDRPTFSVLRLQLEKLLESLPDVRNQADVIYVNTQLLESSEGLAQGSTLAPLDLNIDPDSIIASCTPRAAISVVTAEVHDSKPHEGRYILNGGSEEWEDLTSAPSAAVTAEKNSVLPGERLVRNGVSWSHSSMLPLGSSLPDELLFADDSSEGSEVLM
assay_protocol: phosphorylation enrichment, bacterial display (enrichment ratio); higher = better substrate or ligand; peptides without Tyr show the background
Form field: phosphorylation enrichment (one value per entry).
experimental_endpoint: phosphorylation enrichment

residue_sequence="MPAVTYTPAMR [MEGF10_Y895]" target="MERTK (UniProt Q12866)" observed_measurement=0.336
residue_sequence="RASDFYSQQMA [GBP6_Y334_A331S_YF]" target="MERTK (UniProt Q12866)" observed_measurement=0.957
residue_sequence="GTPVMYTYDEY [COL10A1_Y623]" target="MERTK (UniProt Q12866)" observed_measurement=0.804
residue_sequence="LNCDRYSVGLL [PDE6A_Y275]" target="MERTK (UniProt Q12866)" observed_measurement=0.709
residue_sequence="HAVFIYDICHV [TWNK_Y508_V507I_YF]" target="MERTK (UniProt Q12866)" observed_measurement=3.24
residue_sequence="VKMLLYTEVTR [GDI1_Y93]" target="MERTK (UniProt Q12866)" observed_measurement=2.58
residue_sequence="QNAGDYFDLFG [PTPN11_Y62_T59A_YF]" target="MERTK (UniProt Q12866)" observed_measurement=1.71
residue_sequence="YSDPSYVKQME [CDC5L_Y464]" target="MERTK (UniProt Q12866)" observed_measurement=0.578
residue_sequence="LQLLGDRPVFS [CHST6_Y358_Y358D_YF]" target="MERTK (UniProt Q12866)" observed_measurement=0.388
residue_sequence="KNRDVSSSDFF [USP24_Y2134_Y2134S_YF]" target="MERTK (UniProt Q12866)" observed_measurement=0.436
residue_sequence="METKGYHSLPE [NR3C2_Y6]" target="MERTK (UniProt Q12866)" observed_measurement=0.515
residue_sequence="PRDSGYSYETI [MAP1B_Y1921_S1917R]" target="MERTK (UniProt Q12866)" observed_measurement=0.55
residue_sequence="EKMWSYTKSAE [GRIA3_Y705_M706T]" target="MERTK (UniProt Q12866)" observed_measurement=0.44
residue_sequence="RTLSEYARPHV [RERE_Y1259]" target="MERTK (UniProt Q12866)" observed_measurement=0.443
residue_sequence="NGEDPYAGSTD [XRCC1_Y515]" target="MERTK (UniProt Q12866)" observed_measurement=0.399
residue_sequence="ASKEPYYVRCI [MYO1D_Y585]" target="MERTK (UniProt Q12866)" observed_measurement=0.618
residue_sequence="FHNSEYGELSE [FLT4_Y1337_Y1333H]" target="MERTK (UniProt Q12866)" observed_measurement=0.352
residue_sequence="RGDVIYKGFED [NFU1_Y194_G189R]" target="MERTK (UniProt Q12866)" observed_measurement=0.481
residue_sequence="DEEPPYRGPFC [SASH1_Y551]" target="MERTK (UniProt Q12866)" observed_measurement=0.332
residue_sequence="ENGPYYASYPP [GDAP2_Y488_T489A]" target="MERTK (UniProt Q12866)" observed_measurement=6.92
residue_sequence="PLQNTYNYNVL [SLC4A1_Y553_K551N]" target="MERTK (UniProt Q12866)" observed_measurement=0.737
residue_sequence="ERPIRYLNHQL [CEP152_Y268_Q265P]" target="MERTK (UniProt Q12866)" observed_measurement=0.497
residue_sequence="RGFDTYFGYLL [ARSB_Y165]" target="MERTK (UniProt Q12866)" observed_measurement=4.01
